# Test system: SF-539 CNS
# EXPERIMENTAL_DETAILS: NCI tumour cell line growth inhibition, 48 h
ASSAY_READOUT: TGI (µM)

1. O=C1NC(=O)c2ccccc2/C1=C/c1ccc2c(c1)OCO2 : 46.7
2. Cc1c(C(=O)c2ccc(N)c3ccccc23)c2ccccc2n1CCN1CCOCC1 : 50.8
3. CN(C)C(=O)Nc1nc2cc(Cl)c(Cl)cc2[nH]1 : 6.05
4. OCCCCC#Cc1ccccc1C#Cc1ccc(O)cc1 : 35.9
5. COc1ccc(/C=C(/c2ccccc2)[N+](=O)[O-])c(OC)c1 : 2.94
6. C=C(C(=O)O[C@H]1C/C(C)=C/CC/C(CO)=C/[C@H]2C(=O)OC(=C)[C@H]12)C(O)CO (stereo not given in full) : 10.4
